Hello, the source for this data is PubChem BioAssay (EPA / NIEHS), in case you need it.

Read-out: Nuclear factor erythroid 2-related factor 2 (Homo sapiens)
Method Summary: LTEA_HepaRG_NFE2L2: Life Technologies and Expression Analysis (LTEA) Assay for Nuclear factor erythroid 2-related factor 2 (NFE2L2) Transcription Factor using HepaRG (AID 2283527)
Condition Notes: mRNA level, 48 h; actives raise or lower the signal
The source made the active and inactive calls. How the source made its calls: active means hit-call score of the fitted dose curve at least 0.9, where 1 is the maximum; inactive means score below 0.9.
Labels: t for active, f for inactive

{"Compound": "CC(C)c1cccc(C(C)C)c1", "Category Label": "f"}
{"Compound": "O=C(O)CN(CC(=O)O)CC(=O)O", "Category Label": "f"}
{"Compound": "O=C1c2c(O)cccc2Cc2cccc(O)c21", "Category Label": "f"}
{"Compound": "CC1(C)C(=O)NC(=O)N1CO", "Category Label": "f"}
{"Compound": "C/C=C/C=C/C(=O)O", "Category Label": "f"}
{"Compound": "CCc1nc(N)nc(N)c1-c1ccc(Cl)cc1", "Category Label": "f"}
{"Compound": "Cc1occc(=O)c1O", "Category Label": "f"}
{"Compound": "CSc1ccc(Oc2ccc(S(N)(=O)=O)cc2CN(C)C)cc1C", "Category Label": "f"}
{"Compound": "O=NO", "Category Label": "f"}
{"Compound": "CCCCCCC(CCCCCCCCCCC(=O)OCC(COC(C)=O)OC(C)=O)OC(C)=O (stereo not given)", "Category Label": "f"}
{"Compound": "CN(C)CCCN(C)CCCN(C)C", "Category Label": "f"}
{"Compound": "Oc1ccccc1O", "Category Label": "f"}
{"Compound": "CCCCCCCCCCCCCCCCO", "Category Label": "f"}
{"Compound": "C=CCc1ccc(OC)c(OC)c1", "Category Label": "f"}
{"Compound": "Nc1nc(=S)c2[nH]cnc2[nH]1", "Category Label": "t"}
{"Compound": "Nc1nc(Cl)nc2c1ncn2[C@H]1C[C@H](O)[C@@H](CO)O1", "Category Label": "f"}
{"Compound": "CC(C)COC(=O)CCCCC(=O)OCC(C)C", "Category Label": "f"}
{"Compound": "OCC(CO)n1cnc(-c2ccc(F)cc2)c1-c1ccnc(Oc2ccccc2)n1", "Category Label": "t"}
{"Compound": "CC(=O)OCC(COC(C)=O)OC(C)=O", "Category Label": "f"}
{"Compound": "COc1ccc(C(=O)Nc2nc3ccccc3c(NCc3ccccc3)c2C#N)cc1", "Category Label": "t"}
{"Compound": "O=C1OC(c2ccc(O)cc2)(c2ccc(O)cc2)c2ccccc21", "Category Label": "f"}
{"Compound": "Cc1ccc(-c2cc(C(F)(F)F)nn2-c2ccc(S(N)(=O)=O)cc2)cc1", "Category Label": "t"}
{"Compound": "NC(=Nc1ccccc1)Nc1ccccc1", "Category Label": "f"}
{"Compound": "O=C1O[C@H]([C@H](O)CO)C(O)=C1O", "Category Label": "f"}
{"Compound": "CC(=O)O", "Category Label": "f"}
{"Compound": "C=CCCCCCCCCCCCC", "Category Label": "f"}
{"Compound": "CCCCOC(=O)CCCCC(=O)OCCCC", "Category Label": "f"}
{"Compound": "Oc1ccc(O)cc1", "Category Label": "f"}
{"Compound": "O=C1CCCCC1", "Category Label": "f"}
{"Compound": "O=C1NC(=O)C(c2ccccc2)(c2ccccc2)N1", "Category Label": "f"}
